Data origin: patent US9975878B2

System: Bmi-1 protein
Experimental Details: Sandwich ELISA Assay: Bmi-1 protein level in HT-1080 cells treated with test compounds
Format: cell-based
pEC50: −log10 of the molar value.
Outcome Measure: pEC50

>  <Input Smiles>
Cc1nc2ccccc2n1-c1nc(N)nc(Nc2cnc3ccccc3c2)n1

>  <Readout Value>
8.00 to 9.00

$$$$
>  <Input Smiles>
CCc1nc2c(F)cc(F)cc2n1-c1nc(N)nc(Nc2ccc(OC)cc2)n1

>  <Readout Value>
8.00 to 9.00

$$$$
>  <Input Smiles>
Cc1nc2cc(Cl)ccc2n1-c1nc(N)nc(Nc2ccc(C(F)(F)F)cc2)n1

>  <Readout Value>
5.52 to 7.00

$$$$
>  <Input Smiles>
Cc1nc2cc(F)ccc2n1-c1nc(N)nc(Nc2ccc(C(F)(F)F)cc2)n1

>  <Readout Value>
5.52 to 7.00

$$$$
>  <Input Smiles>
Nc1nc(Nc2ccc(OC(F)F)cc2)nc(-n2c(C(F)F)nc3cc(F)c(F)cc32)n1

>  <Readout Value>
7.00 to 8.00

$$$$
>  <Input Smiles>
Nc1nc(Nc2ccc(OC(F)(F)F)cc2)nc(-n2c(C(F)F)nc3ccccc32)n1

>  <Readout Value>
7.00 to 8.00

$$$$
>  <Input Smiles>
Nc1nc(Nc2ccc(OC(F)F)cc2)nc(-n2c(CF)nc3ccccc32)n1

>  <Readout Value>
7.00 to 8.00

$$$$
>  <Input Smiles>
CCc1nc2ccc(F)cc2n1-c1cnnc(Nc2ccc(C(F)(F)F)cc2)n1

>  <Readout Value>
5.52 to 7.00

$$$$
>  <Input Smiles>
Cc1cccc(Nc2nc(N)nc(-n3c(C4CC4)nc4ccccc43)n2)c1

>  <Readout Value>
5.52 to 7.00

$$$$
>  <Input Smiles>
CCc1nc2c(F)cccc2n1-c1nc(N)nc(Nc2ccc(OC(F)F)cc2)n1

>  <Readout Value>
7.00 to 8.00

$$$$
>  <Input Smiles>
Nc1nc(Nc2ccc(Cl)cc2)nc(-n2c(C3CC3)nc3c(F)cccc32)n1

>  <Readout Value>
7.00 to 8.00

$$$$
>  <Input Smiles>
COc1ccc(Nc2nncc(-n3c(C)nc4ccccc43)n2)cc1

>  <Readout Value>
8.00 to 9.00

$$$$
>  <Input Smiles>
Cc1nc2ccccc2n1-c1cnnc(Nc2ccc(C(F)(F)F)cc2)n1

>  <Readout Value>
5.52 to 7.00

$$$$
>  <Input Smiles>
Cc1nc2cc(Cl)ccc2n1-c1nc(N)nc(Nc2ccc(OC(F)F)cc2)n1

>  <Readout Value>
5.52 to 7.00

$$$$
>  <Input Smiles>
Nc1nc(Nc2ccc(OC(F)F)c(F)c2)nc(-n2c(C3CC3)nc3c(F)cc(F)cc32)n1

>  <Readout Value>
7.00 to 8.00

$$$$

* * *

Tested on: Bmi-1 protein
Experimental Details: Sandwich ELISA Assay: Bmi-1 protein level in HT-1080 cells treated with test compounds
Assay type: cell-based
pEC50: −log10 of the molar value.
# key: entry, value: pEC50

>  <Input Smiles>
Nc1nc(Nc2ccc(OC(F)F)c(F)c2)nc(-n2c(C(F)F)nc3ccccc32)n1

>  <pEC50>
7.00 to 8.00

$$$$
>  <Input Smiles>
Nc1nc(Nc2ccc(C(F)(F)F)c(F)c2)nc(-c2c(C(F)(F)F)nc3ccccn23)n1

>  <pEC50>
5.52 to 7.00

$$$$
>  <Input Smiles>
Cc1nc2c(F)cc(F)cc2n1-c1nc(N)nc(Nc2ccc(Cl)cc2)n1

>  <pEC50>
5.52 to 7.00

$$$$
>  <Input Smiles>
COc1ccc(Nc2nc(N)nc(-n3c(C)nc4cc(F)c(F)cc43)n2)cc1

>  <pEC50>
8.00 to 9.00

$$$$
>  <Input Smiles>
CCc1nc2ccccc2n1-c1nc(Nc2ccc(OC(F)F)cc2)c[n+]([O-])n1

>  <pEC50>
5.52 to 7.00

$$$$
>  <Input Smiles>
CCc1nc2c(F)cc(F)cc2n1-c1nc(N)nc(Nc2ccc(Cl)cc2)n1

>  <pEC50>
7.00 to 8.00

$$$$
>  <Input Smiles>
CCc1nc2ccccc2n1-c1nc(N)nc(Nc2ccc(OC(F)F)cc2)n1

>  <pEC50>
7.00 to 8.00

$$$$
>  <Input Smiles>
Cc1nc2ccccc2n1-c1nc(N)nc(Nc2ccc(N3CCOCC3)cc2)n1

>  <pEC50>
5.52 to 7.00

$$$$

* * *

System: Bmi-1 protein
Experimental Details: Sandwich ELISA Assay: Bmi-1 protein level in HT-1080 cells treated with test compounds
Format: cell-based

>  <Compound>
Nc1nc(Nc2ccc(OC(F)F)c(F)c2)nc(-n2c(C3CC3)nc3ccc(F)cc32)n1 [Cpd 64]

>  <System Under Test>
Bmi-1 protein

>  <EC50>
10 to 100 nM

$$$$
>  <Compound>
Cc1nc2c(F)cc(F)cc2n1-c1nc(N)nc(Nc2ccc(Br)cc2)n1 [Cpd 208]

>  <System Under Test>
Bmi-1 protein

>  <EC50>
10 to 100 nM

$$$$
>  <Compound>
Nc1nc(Nc2ccc(OC(F)F)nc2)nc(-n2c(CF)nc3ccccc32)n1 [Cpd 110]

>  <System Under Test>
Bmi-1 protein

>  <EC50>
100 to 3000 nM

$$$$
>  <Compound>
Nc1nc(Nc2ccc(Br)cc2)nc(-n2c(C3CC3)nc3c(F)cccc32)n1 [Cpd 220]

>  <System Under Test>
Bmi-1 protein

>  <EC50>
10 to 100 nM

$$$$
>  <Compound>
Cc1ccc(Nc2nc(N)nc(-n3c(C4CC4)nc4cc(F)ccc43)n2)cc1 [Cpd 192]

>  <System Under Test>
Bmi-1 protein

>  <EC50>
1 to 10 nM

$$$$
>  <Compound>
Cc1nc2ccccc2n1-c1nc(N)nc(Nc2ccc(Cl)cc2)n1 [Cpd 150]

>  <System Under Test>
Bmi-1 protein

>  <EC50>
10 to 100 nM

$$$$
>  <Compound>
Cc1nc2ccccc2n1-c1nc(N)nc(Nc2ccc3ocnc3c2)n1 [Cpd 15]

>  <System Under Test>
Bmi-1 protein

>  <EC50>
100 to 3000 nM

$$$$
>  <Compound>
Cc1ccc(Nc2nncc(-n3c(C)nc4ccccc43)n2)cc1 [Cpd 217]

>  <System Under Test>
Bmi-1 protein

>  <EC50>
1 to 10 nM

$$$$

* * *

Each item that follows carries a reported EC50.
System: Bmi-1 protein
Experimental Details: Sandwich ELISA Assay: Bmi-1 protein level in HT-1080 cells treated with test compounds
Format: cell-based
Experimental: Cell Seeding and Compound Treatment (Day 1): HT-1080 cells were seeded at 8000 cells/well (50 μL) in 96-well tissue culture plates. […] The plate was washed and blotted dry, then a previously prepared TMB substrate (TMB substrate kit, Pierce catalog #34021) (prepared by mixing kit reagents 1:1) (100 μL) was added per well. […] The plates were read at OD450 (experimental) and OD570 (reference).

>  <Input Smiles>
Cc1nc2ccccc2n1-c1nc(NO)nc(Nc2ccc3ncccc3c2)n1

>  <EC50>
10 to 100 nM

$$$$
>  <Input Smiles>
Nc1nc(Nc2ccc(OC(F)F)nc2)nc(-n2c(C3CC3)nc3c(F)cc(F)cc32)n1

>  <EC50>
10 to 100 nM

$$$$
>  <Input Smiles>
CCc1nc2ccccc2n1-c1cnnc(Nc2ccc(C)cc2)n1

>  <EC50>
1 to 10 nM

$$$$
>  <Input Smiles>
CCc1nc2ccccc2n1-c1cnnc(Nc2ccc(C(F)(F)F)cc2)n1

>  <EC50>
100 to 3000 nM

$$$$
>  <Input Smiles>
Cc1nc2ncc(Cl)cc2n1-c1nc(N)nc(Nc2ccc(OC(F)(F)F)cc2)n1

>  <EC50>
100 to 3000 nM

$$$$
>  <Input Smiles>
CSc1ccc(Nc2nc(N)nc(-n3c(C)nc4ccc(F)cc43)n2)cc1

>  <EC50>
10 to 100 nM

$$$$
>  <Input Smiles>
CCc1nc2c(F)cccc2n1-c1nc(N)nc(Nc2ccc(Br)cc2)n1

>  <EC50>
1 to 10 nM

$$$$
>  <Input Smiles>
CCc1nc2ccc(F)cc2n1-c1nc(N)nc(Nc2ccc(OC(F)F)c(F)c2)n1

>  <EC50>
10 to 100 nM

$$$$
>  <Input Smiles>
CCc1nc2ccccc2n1-c1nc(N)nc(Nc2ccc(Br)cc2)n1

>  <EC50>
1 to 10 nM

$$$$
>  <Input Smiles>
Nc1nc(Nc2ccc(OC(F)F)cc2)nc(-n2c(C3CC3)nc3c(F)cccc32)n1

>  <EC50>
10 to 100 nM

$$$$
>  <Input Smiles>
CCc1nc2ccc(F)cc2n1-c1nc(N)nc(Nc2ccc(OC)cc2)n1

>  <EC50>
1 to 10 nM

$$$$
>  <Input Smiles>
CCc1nc2ccc(F)cc2n1-c1nc(N)nc(Nc2ccc(Cl)cc2)n1

>  <EC50>
10 to 100 nM

$$$$
>  <Input Smiles>
CCc1nc2ccccc2n1-c1nncc(Nc2ccc(OC)cc2)n1

>  <EC50>
1 to 10 nM

$$$$
>  <Input Smiles>
Cc1nc2cc(F)c(F)cc2n1-c1nc(N)nc(Nc2ccc(OC(F)F)c(F)c2)n1

>  <EC50>
100 to 3000 nM

$$$$
>  <Input Smiles>
Cc1nc2ccc(F)cc2n1-c1cnnc(Nc2ccc(C(F)(F)F)cc2)n1

>  <EC50>
100 to 3000 nM

$$$$
>  <Input Smiles>
Cc1nc2ccccc2n1-c1nncc(Nc2ccc(C(F)(F)F)cc2)n1

>  <EC50>
100 to 3000 nM

$$$$
>  <Input Smiles>
Cc1ccc(Nc2nc(N)nc(-n3c(C)nc4c(F)cc(F)cc43)n2)cc1

>  <EC50>
1 to 10 nM

$$$$
>  <Input Smiles>
Cc1nc2c(F)cccc2n1-c1nc(N)nc(Nc2ccc(OC(F)F)c(F)c2)n1

>  <EC50>
100 to 3000 nM

$$$$
>  <Input Smiles>
COc1ccc(Nc2nc(N)nc(-n3c(C)nc4c(F)cc(F)cc43)n2)cc1

>  <EC50>
1 to 10 nM

$$$$
>  <Input Smiles>
CCc1nc2cc(F)c(F)cc2n1-c1nc(N)nc(Nc2ccc(OC(F)F)cc2)n1

>  <EC50>
10 to 100 nM

$$$$
>  <Input Smiles>
Nc1nc(Nc2ccc(OC(F)(F)F)cc2)nc(-n2c(C3CC3)nc3c(F)cc(F)cc32)n1

>  <EC50>
100 to 3000 nM

$$$$
>  <Input Smiles>
Cc1cccc(Nc2nc(N)nc(-n3c(C)nc4ccccc43)n2)c1

>  <EC50>
100 to 3000 nM

$$$$
>  <Input Smiles>
Nc1nc(Nc2ccc(OC(F)F)c(F)c2)nc(-n2c(C(F)F)nc3cc(F)c(F)cc32)n1

>  <EC50>
100 to 3000 nM

$$$$
>  <Input Smiles>
Nc1nc(Nc2ccc(Br)cc2)nc(-n2c(C3CC3)nc3ccccc32)n1

>  <EC50>
1 to 10 nM

$$$$
>  <Input Smiles>
N#Cc1ccc(Nc2nc(N)nc(-n3c(C4CC4)nc4ccccc43)n2)cc1

>  <EC50>
100 to 3000 nM

$$$$
>  <Input Smiles>
[O-][n+]1cc(Nc2ccc(C(F)(F)F)cc2)nc(-n2c(C3CC3)nc3ccccc32)n1

>  <EC50>
10 to 100 nM

$$$$
>  <Input Smiles>
CCc1nc2cc(F)ccc2n1-c1nc(N)nc(Nc2ccc(OC)cc2)n1

>  <EC50>
1 to 10 nM

$$$$
>  <Input Smiles>
CSc1nc2ccccc2n1-c1nc(N)nc(Nc2ccc(OC(F)F)cc2)n1

>  <EC50>
100 to 3000 nM

$$$$
>  <Input Smiles>
COc1ccc(Nc2cnnc(-n3c(C)nc4ccccc43)n2)cc1

>  <EC50>
1 to 10 nM

$$$$
